The origin of these recorded values is PubChem BioAssay (NCI).

# Test system: HCT-116 colon
# EXPERIMENTAL_DETAILS: NCI-60 one-dose screen, 48 h (100 = growth as untreated, 0 = no growth, -100 = all killed)
# MEASUREMENT_PARAMETERS: 10 µM unless noted
About 83,000 compounds went through this panel and 20% of them were active in at least one assay; those are over-represented in the sample as a whole.
Please use Fulfilled whenever growth is not below 90%, and Not fulfilled whenever it is.

Query block: Would you say "COc1ccc2cc(-c3cnc4nonc4n3)ccc2c1" shows growth at minimum 90%?
Result block: Not fulfilled

Query block: Same thing, different molecule: "COC(=O)c1ccc2c(c1)c1c(C)c3ccncc3c(C)c1n2C"
Result block: Not fulfilled

Query block: Same thing, different molecule: COc1ccc(C2=CN3CC=CCC3CC2=O)cc1 (stereo not given)
Result block: Fulfilled

Query block: Same thing, different molecule: "COc1cc(/C=C/c2cc(/C=C/c3ccc(O)c(OC)c3)n(C(=O)Nc3ccc(F)cc3)n2)ccc1O"
Result block: Not fulfilled

Query block: Same thing, different molecule: C#CC#CC#CC#CC#CC#CC#CC#CCC1OCC(COC(=O)O[C@@H](C(=O)O[C@H]2C[C@@]3(O)[C@@H](OC(=O)c4ccccc4)[C@@H]4[C@]5(OC(C)=O)CO[C@@H]5C[C@H](O)[C@@]4(C)C(=O)[C@H](OC(C)=O)C(=C2C)C3(C)C)[C@@H](NC(=O)c2ccccc2)c2ccccc2)O1 (stereo not given in full)
Result block: Not fulfilled

Query block: Same thing, different molecule: "CCN(CC)CCOc1nc2c3ccc(Cl)cc3nn2c2ccccc12"
Result block: Not fulfilled

Query block: Same thing, different molecule: "CC(=O)Nc1c(Cl)cc(Cl)c2c1Cc1cc([N+](=O)[O-])ccc1-2"
Result block: Not fulfilled

Query block: Same thing, different molecule: "CC[C@H](CC[C@@H](C)[C@H]1CC[C@H]2[C@@H]3CC[C@@H]4CC(=O)/C(=C\c5ccncc5)C[C@]4(C)[C@H]3CC[C@]12C)C(C)C"
Result block: Fulfilled

Query block: Same thing, different molecule: C=CC(C)(O)CC/C=C(\CO)C(=O)OC1C(C)OC(O[C@](C)(C=C)CC/C=C(\CO)C(=O)O[C@H]2C[C@@]3(C(=O)OC4OC(CO)C(O)C(O)C4OC4OC(C)C(OC5OC(CO)C(O)C5O)C(OC5OC(CO)C(O)C(O)C5O)C4O)C(CC2(C)C)C2=CCC4[C@@]5(C)CC[C@H](OC6OC(COC7OC(C)C(O)C(O)C7OC7OCC(O)C(O)C7O)C(O)C(O)C6NC(C)=O)C(C)(C)C5CC[C@@]4(C)[C@]2(C)C[C@H]3O)C(O)C1O (stereo not given in full)
Result block: Not fulfilled

Query block: Same thing, different molecule: "COc1ccc(C2=C/C(=C\c3ccc(Cl)cc3)C(=O)N2/N=C/c2ccc(Cl)cc2)cc1"
Result block: Fulfilled

Query block: Same thing, different molecule: "O=C1NC(=O)c2c1c1c3ccccc3[nH]c1c1oc3cc(Br)ccc3c21"
Result block: Not fulfilled

Query block: Same thing, different molecule: "O=C(Nc1ccc(F)cc1)Nc1ccccc1CNc1nc(Nc2ccc(OCCN3CCCC3)cc2)ncc1Cl"
Result block: Not fulfilled

Query block: Same thing, different molecule: "CCOC(=O)NN1CC(O)=C(c2nc(-c3ccc(Br)cc3)cs2)C1=N"
Result block: Fulfilled

Query block: Same thing, different molecule: O=C(CCC(=O)c1nc2ncccc2[nH]1)NN1C(=O)CSC1c1ccc(Cl)cc1 (stereo not given)
Result block: Not fulfilled
